- SYSTEM: human PDE2A1 (Homo sapiens, UniProt O00408)
- Construct: GST; purchased BPS Bioscience (San Diego, Calif.) 60020; host or cells: insect cells
- Sequence (O00408 1-920 isoform O00408-2): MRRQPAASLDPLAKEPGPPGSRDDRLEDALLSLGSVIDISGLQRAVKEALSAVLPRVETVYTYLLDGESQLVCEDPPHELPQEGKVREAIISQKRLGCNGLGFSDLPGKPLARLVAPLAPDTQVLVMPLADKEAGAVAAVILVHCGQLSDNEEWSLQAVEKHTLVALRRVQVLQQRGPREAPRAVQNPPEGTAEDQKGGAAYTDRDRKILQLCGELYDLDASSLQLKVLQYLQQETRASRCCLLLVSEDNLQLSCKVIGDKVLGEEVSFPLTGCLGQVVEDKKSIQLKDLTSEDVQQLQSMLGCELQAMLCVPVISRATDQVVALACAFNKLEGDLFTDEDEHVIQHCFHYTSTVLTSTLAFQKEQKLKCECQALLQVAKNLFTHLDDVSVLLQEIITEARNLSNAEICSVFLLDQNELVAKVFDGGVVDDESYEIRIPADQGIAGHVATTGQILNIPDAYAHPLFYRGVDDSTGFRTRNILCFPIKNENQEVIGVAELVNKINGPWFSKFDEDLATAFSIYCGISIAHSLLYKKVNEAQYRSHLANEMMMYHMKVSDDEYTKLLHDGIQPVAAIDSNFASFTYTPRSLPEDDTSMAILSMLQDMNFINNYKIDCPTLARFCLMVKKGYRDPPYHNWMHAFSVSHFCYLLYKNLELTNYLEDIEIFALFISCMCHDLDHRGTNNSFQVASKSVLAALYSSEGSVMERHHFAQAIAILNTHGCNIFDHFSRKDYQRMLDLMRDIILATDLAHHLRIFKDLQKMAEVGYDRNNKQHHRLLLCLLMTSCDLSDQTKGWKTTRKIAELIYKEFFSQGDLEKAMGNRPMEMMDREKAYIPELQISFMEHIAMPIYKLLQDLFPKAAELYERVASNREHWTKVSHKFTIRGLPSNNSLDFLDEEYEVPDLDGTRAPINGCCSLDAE
- PROCEDURE_DETAILS: IMAP FP PDE assay, human PDE2A1
- Format: biochemical
- CONDITION_CONTEXT: Lab B; read-out: Human PDE2 Ki (nM) Lab B
OBSERVATION_TYPE: log10 of Ki (log10 of the value in nM)
// do not treat as linear: log10 of Ki, unit nM

Before answering, review these 3 worked examples.
Exercise: Look up log10 of Ki of CC(=O)c1nn([C@@H](C)c2ccc(C(F)(F)F)cc2)c2nc(C)[nH]c(=O)c12 [Example 322] and report it.
Solution: 1.62

Exercise: Look up log10 of Ki of Cc1nc2c(c(CO)nn2C(c2ccc(OC(F)(F)F)c(F)c2)C(C)C)c(=O)[nH]1 (single isomer, unassigned) [Example 127] and report it.
Solution: -0.01

Exercise: Look up log10 of Ki of Cc1nc2c(c(CCO)nn2C(C)c2ccc(C(F)(F)F)cc2)c(=O)[nH]1 (single isomer, unassigned) [Example 250] and report it.
Solution: 0.28

Continuing:
Exercise: Look up log10 of Ki of Cc1nc2c(c(-c3nnco3)nn2C(C)c2ccc(C(F)(F)F)cc2)c(=O)[nH]1 (single isomer, unassigned) [Example 262] and report it.
Solution: 2.60

Exercise: Look up log10 of Ki of Cc1nc2c(c(CO)nn2C(C)c2ccc(C3(C)CC3)cc2)c(=O)[nH]1 (single isomer, unassigned) [Example 144] and report it.
Solution: -0.23

Exercise: Look up log10 of Ki of Cc1nc2c(c(C(F)F)nn2C(C)c2ccc(C(F)(F)F)cc2)c(=O)[nH]1 (single isomer, unassigned) [Example 176] and report it.
Solution: 0.11

Exercise: Look up log10 of Ki of Cc1nc2c(c(CF)nn2C(C)c2ccc(OC(F)(F)F)c(F)c2)c(=O)[nH]1 (single isomer, unassigned) [Example 217] and report it.
Solution: -0.15

Exercise: Look up log10 of Ki of Cc1nc2c(c(N)nn2C(C)c2ccc(C(F)(F)F)cc2)c(=O)[nH]1 (centres unmarked) [Example 258] and report it.
Solution: 1.62

----------
- SYSTEM: human PDE2A1 (Homo sapiens)
- Construct: GST; purchased BPS Bioscience (San Diego, Calif.) 60020; host or cells: insect cells
- PROCEDURE_DETAILS: IMAP FP PDE assay, human PDE2A1
- Type: biochemical
- CONDITION_CONTEXT: Lab B; read-out: Human PDE2 Ki (nM) Lab B
OBSERVATION_TYPE: Ki (nM)
State just the number; it will be interpreted in nM.

Exercise: Retrieve Ki on human PDE2A1 (Homo sapiens); query Cc1nc2c(c(CO)nn2C(C)c2ccc(OC(F)(F)F)c(F)c2)c(=O)[nH]1 (single isomer, unassigned) [Example 10]
Solution: 50

Exercise: Retrieve Ki on human PDE2A1 (Homo sapiens); query CC(c1ccc(C(F)(F)F)cc1)n1nc(C#N)c2c(=O)[nH]c(CC3CCCC3)nc21 (single isomer, unassigned) [Example 351]
Solution: 1010

Exercise: Retrieve Ki on human PDE2A1 (Homo sapiens); query Cc1nc2c(c(CC(C)O)nn2C(C)c2ccc(C(F)(F)F)cc2)c(=O)[nH]1 (single isomer, unassigned) [Example 244]
Solution: 386

Next compound, please.
Exercise: Retrieve Ki on human PDE2A1 (Homo sapiens); query Cc1nc2c(c(CO)nn2C(C)c2ccc(OC(F)F)cc2)c(=O)[nH]1 (single isomer, unassigned) [Example 20]
Solution: 305

----------
Collected Ki values appear next to each entry.
- SYSTEM: human PDE2A1 (Homo sapiens)
- Construct: GST; purchased BPS Bioscience (San Diego, Calif.) 60020; host or cells: insect cells
- PROCEDURE_DETAILS: IMAP FP PDE assay, human PDE2A1
- Format: biochemical
- CONDITION_CONTEXT: Lab B; read-out: Human PDE2 Ki (nM) Lab B

Before answering, review these 3 worked examples.
Exercise: Look up Ki of Cc1nc2c(c(CO)nn2C(C)c2ccc(C(F)(F)F)nc2)c(=O)[nH]1 (single isomer, unassigned) [Example 131] and report it.
Solution: 57 nM

Exercise: Look up Ki of Cc1nc2c(c(CO)nn2C(C)c2ccc(OC(F)F)cc2F)c(=O)[nH]1 (single isomer, unassigned) [Example 119] and report it.
Solution: 2.7 nM

Exercise: Look up Ki of Cc1nc2c(c(CO)nn2C(C)c2ccc(C(F)(F)F)cc2Cl)c(=O)[nH]1 (single isomer, unassigned) [Example 18] and report it.
Solution: ~2850 nM

Continuing:
Exercise: Look up Ki of CNC(=O)c1nn(C(C)c2ccc(C(F)(F)F)cc2)c2nc(C)[nH]c(=O)c12 (single isomer, unassigned) [Example 264] and report it.
Solution: 233 nM

Exercise: Look up Ki of CNC(=O)c1nn(C(C)c2ccc(C(F)(F)F)cc2)c2nc(C)[nH]c(=O)c12 (single isomer, unassigned) [Example 265] and report it.
Solution: 375 nM

Exercise: Look up Ki of Cc1nc2c(c(C3CCCO3)nn2C(C)c2ccc(C(F)(F)F)cc2)c(=O)[nH]1 (single isomer, unassigned) [Example 73] and report it.
Solution: 423 nM

----------
- SYSTEM: human PDE2A1 (Homo sapiens)
- Construct: GST; purchased BPS Bioscience (San Diego, Calif.) 60020; host or cells: insect cells
- PROCEDURE_DETAILS: IMAP FP PDE assay, human PDE2A1
- Type: biochemical
- CONDITION_CONTEXT: Lab B; read-out: Human PDE2 Ki (nM) Lab B
Collected Ki values appear next to each entry.
State just the number; it will be interpreted in nM.

Before answering, review these 2 worked examples.
Exercise: Look up Ki of CCc1nc2c(c(C(F)F)nn2C(C)c2ccc(C(F)(F)F)cc2)c(=O)[nH]1 (single isomer, unassigned) [Example 189] and report it.
Solution: 330

Exercise: Look up Ki of Cc1nc2c(c(CO)nn2C(C)c2ccc(S(F)(F)(F)(F)F)cc2F)c(=O)[nH]1 (single isomer, unassigned) [Example 120] and report it.
Solution: 496

Next molecule, please.
Exercise: Look up Ki of CC(C)c1nc2c(c(CO)nn2C(C)c2ccc(C(F)(F)F)cc2)c(=O)[nH]1 (racemic) and report it.
Solution: 39

----------
- SYSTEM: Rhesus PDE2A3 (Macaca mulatta)
- Construct: made in house; host or cells: AD293 cells, transient transfection; supernatant of sonicated lysate
- Sequence (B3VTJ2 1-941): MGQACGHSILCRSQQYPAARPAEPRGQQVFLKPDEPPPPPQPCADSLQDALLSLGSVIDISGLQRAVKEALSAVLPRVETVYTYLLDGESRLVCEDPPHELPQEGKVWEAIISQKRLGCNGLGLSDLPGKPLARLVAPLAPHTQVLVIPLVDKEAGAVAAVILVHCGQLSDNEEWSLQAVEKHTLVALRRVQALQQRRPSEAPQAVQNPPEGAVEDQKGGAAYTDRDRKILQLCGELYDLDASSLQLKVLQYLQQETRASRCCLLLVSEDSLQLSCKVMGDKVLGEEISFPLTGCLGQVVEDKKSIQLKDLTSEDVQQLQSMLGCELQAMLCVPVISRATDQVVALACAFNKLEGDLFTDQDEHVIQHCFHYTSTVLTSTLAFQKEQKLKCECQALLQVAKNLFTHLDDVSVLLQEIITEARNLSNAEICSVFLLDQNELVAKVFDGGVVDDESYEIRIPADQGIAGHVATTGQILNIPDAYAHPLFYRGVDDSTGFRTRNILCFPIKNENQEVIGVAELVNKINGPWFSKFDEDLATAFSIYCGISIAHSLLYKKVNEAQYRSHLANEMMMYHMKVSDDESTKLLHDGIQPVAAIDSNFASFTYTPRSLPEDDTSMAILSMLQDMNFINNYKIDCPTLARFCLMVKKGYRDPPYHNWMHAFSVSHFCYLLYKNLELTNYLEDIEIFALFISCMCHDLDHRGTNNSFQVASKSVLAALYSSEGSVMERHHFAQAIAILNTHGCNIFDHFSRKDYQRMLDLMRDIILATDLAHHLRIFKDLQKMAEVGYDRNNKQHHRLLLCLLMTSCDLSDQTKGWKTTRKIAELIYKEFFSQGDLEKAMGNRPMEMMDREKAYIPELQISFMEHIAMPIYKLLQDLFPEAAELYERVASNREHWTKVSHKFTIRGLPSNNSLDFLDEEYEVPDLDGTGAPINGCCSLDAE
- PROCEDURE_DETAILS: PDE2 fluorescence polarization (IMAP FP) inhibition assay, rhesus PDE2A3
- Assay type: biochemical, rhesus macaque
- CONDITION_CONTEXT: Lab B; read-out: Rhesus PDE2 Ki (nM) Lab B
OBSERVATION_TYPE: Ki (nM)
State just the number; it will be interpreted in nM.

Before answering, review these 5 worked examples.
Exercise: Retrieve Ki on Rhesus PDE2A3 (Macaca mulatta); query Cc1nc2c(c(CO)nn2C(C)c2ccc(S(F)(F)(F)(F)F)cc2)c(=O)[nH]1 (single isomer, unassigned) [Example 77]
Solution: 4.2

Exercise: Retrieve Ki on Rhesus PDE2A3 (Macaca mulatta); query Cc1nc2c(c(C#N)nn2C(C)c2ccc(C(F)(F)F)cc2)c(=O)[nH]1 (single isomer, unassigned) [Example 252]
Solution: 20

Exercise: Retrieve Ki on Rhesus PDE2A3 (Macaca mulatta); query COCc1nc2c(c(CF)nn2C(C)c2ccc(C(F)(F)F)cc2)c(=O)[nH]1 (stereo not shown) [Example 205]
Solution: 3.2

Exercise: Retrieve Ki on Rhesus PDE2A3 (Macaca mulatta); query Cc1nc2c(c(CF)nn2C(C)c2ccc(OC(F)(F)F)cc2)c(=O)[nH]1 (single isomer, unassigned) [Example 206]
Solution: 123

Exercise: Retrieve Ki on Rhesus PDE2A3 (Macaca mulatta); query Cc1nc2c(c(CF)nn2C(C)c2ccc(S(F)(F)(F)(F)F)cc2)c(=O)[nH]1 (single isomer, unassigned) [Example 199]
Solution: 210

Continuing:
Exercise: Retrieve Ki on Rhesus PDE2A3 (Macaca mulatta); query Cc1nc2c(c(CO)nn2C(C)c2ccc(C(F)(F)F)cc2F)c(=O)[nH]1 (single isomer, unassigned) [Example 17]
Solution: 1.7
